This document collects pIC50 values reported for PKMYT1 (Homo sapiens (Human)).
pIC50: −log10 of the molar value.

Worked cases, pIC50 given:
{"MOLECULE": "Cc1ccc(O)c(C)c1-c1cnc2[nH]c(-c3cnc(N4CCC(F)(F)C4)nc3)c(Cl)c2c1C#N", "SYSTEM_UNDER_TEST": "PKMYT1 (Homo sapiens (Human))", "pIC50": "> 8.00"}
{"MOLECULE": "Cc1ccc(O)c(C)c1-c1cnc2[nH]c(-c3cnn(C)c3)cc2c1C#N", "SYSTEM_UNDER_TEST": "PKMYT1 (Homo sapiens (Human))", "pIC50": "> 8.00"}
{"MOLECULE": "Cc1ccc(O)c(C)c1-c1cnc2[nH]c(-c3cnc(N4CC(O)C(F)C4)nc3)cc2c1C#N (stereo not shown)", "SYSTEM_UNDER_TEST": "PKMYT1 (Homo sapiens (Human))", "pIC50": "> 8.00"}
{"MOLECULE": "Cc1ccc(O)c(C)c1-c1cnc2[nH]c(-c3cnc(O)nc3)cc2c1C#N", "SYSTEM_UNDER_TEST": "PKMYT1 (Homo sapiens (Human))", "pIC50": "> 8.00"}

Prompt: Name the value of pIC50 reported for Cc1ncc(-c2cc3nc(-c4c(C)ccc(O)c4C)cnc3[nH]2)s1 when tested on PKMYT1 (Homo sapiens (Human)).
Response: 7.30 to 8.00

Prompt: Name the value of pIC50 reported for Cc1ccc(O)c(C)c1-c1cnc2[nH]c(-c3cnn(CCO)c3)cc2c1 when tested on PKMYT1 (Homo sapiens (Human)).
Response: 6.30 to 7.30

Prompt: Name the value of pIC50 reported for COCCOc1ncc(-c2[nH]c3ncc(-c4c(C)ccc(O)c4C)c(C#N)c3c2Cl)cn1 when tested on PKMYT1 (Homo sapiens (Human)).
Response: > 8.00

Prompt: Name the value of pIC50 reported for Cc1ccc(O)c(C)c1-c1cnc2[nH]c(-n3cc(N)cn3)cc2c1C#N when tested on PKMYT1 (Homo sapiens (Human)).
Response: > 8.00

Prompt: Name the value of pIC50 reported for Cc1ncc(-c2[nH]c3ncc(-c4c(C)ccc(O)c4C)c(C#N)c3c2C#CC2(O)COC2)cn1 when tested on PKMYT1 (Homo sapiens (Human)).
Response: > 8.00

Prompt: Name the value of pIC50 reported for Cc1ccc(O)c(C)c1-c1cnc2[nH]c(-c3cnc(N4CC(C(=O)O)C4)nc3)cc2c1C#N when tested on PKMYT1 (Homo sapiens (Human)).
Response: > 8.00

---

target: PKMYT1 (Homo sapiens (Human), UniProt Q99640)
Sequence (Q99640 whole entry): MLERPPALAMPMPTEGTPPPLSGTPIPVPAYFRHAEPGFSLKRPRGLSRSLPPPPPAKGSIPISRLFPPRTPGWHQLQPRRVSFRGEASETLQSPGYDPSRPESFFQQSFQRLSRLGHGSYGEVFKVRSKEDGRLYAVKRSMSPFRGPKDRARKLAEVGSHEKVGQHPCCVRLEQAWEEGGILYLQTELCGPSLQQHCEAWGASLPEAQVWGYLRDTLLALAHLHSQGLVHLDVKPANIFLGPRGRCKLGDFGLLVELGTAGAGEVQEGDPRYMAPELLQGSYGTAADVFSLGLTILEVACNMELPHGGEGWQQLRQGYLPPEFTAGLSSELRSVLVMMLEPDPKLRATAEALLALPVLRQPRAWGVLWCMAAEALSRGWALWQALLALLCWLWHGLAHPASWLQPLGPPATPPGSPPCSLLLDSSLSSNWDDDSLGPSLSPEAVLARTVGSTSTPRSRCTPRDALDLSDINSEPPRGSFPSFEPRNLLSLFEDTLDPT
pIC50: −log10 of the molar value.
EXPERIMENTAL_READOUT: pIC50

Worked cases, pIC50 given:
{"COMPOUND": "Cc1ccc(O)c(C)c1-c1cnc2[nH]c(-c3cnc(N)s3)cc2c1C#N", "SYSTEM_UNDER_TEST": "PKMYT1 (Homo sapiens (Human), UniProt Q99640)", "EXPERIMENTAL_READOUT": "pIC50", "RECORDED_RESULT": "> 8.00"}
{"COMPOUND": "Cc1ccc(O)c(C)c1-c1cnc2[nH]c(-c3cncc(N4CCC(O)CC4)c3)cc2c1C#N", "SYSTEM_UNDER_TEST": "PKMYT1 (Homo sapiens (Human), UniProt Q99640)", "EXPERIMENTAL_READOUT": "pIC50", "RECORDED_RESULT": "> 8.00"}
{"COMPOUND": "Cc1ncc(-c2nc3cc(-c4c(C)ccc(O)c4C)cnc3[nH]2)cn1", "SYSTEM_UNDER_TEST": "PKMYT1 (Homo sapiens (Human), UniProt Q99640)", "EXPERIMENTAL_READOUT": "pIC50", "RECORDED_RESULT": "6.30 to 7.30"}
{"COMPOUND": "Cc1ccc(-c2cc3cc(-c4c(C)ccc(O)c4C)cnc3[nH]2)cn1", "SYSTEM_UNDER_TEST": "PKMYT1 (Homo sapiens (Human), UniProt Q99640)", "EXPERIMENTAL_READOUT": "pIC50", "RECORDED_RESULT": "7.30 to 8.00"}
{"COMPOUND": "Cc1ccc(O)c(C)c1-c1cnc2[nH]c(-c3cnc(NC4COC4)nc3)cc2c1C#N", "SYSTEM_UNDER_TEST": "PKMYT1 (Homo sapiens (Human), UniProt Q99640)", "EXPERIMENTAL_READOUT": "pIC50", "RECORDED_RESULT": "> 8.00"}
{"COMPOUND": "Cc1ncc(-c2cc3nc(-c4c(C)ccc(O)c4C)cnc3[nH]2)cn1", "SYSTEM_UNDER_TEST": "PKMYT1 (Homo sapiens (Human), UniProt Q99640)", "EXPERIMENTAL_READOUT": "pIC50", "RECORDED_RESULT": "7.30 to 8.00"}
{"COMPOUND": "Cc1ccc(O)c(C)c1-c1cnc2[nH]c(-c3cnc(N4CC5CC4CO5)nc3)c(Cl)c2c1C#N (stereo not drawn)", "SYSTEM_UNDER_TEST": "PKMYT1 (Homo sapiens (Human), UniProt Q99640)", "EXPERIMENTAL_READOUT": "pIC50", "RECORDED_RESULT": "> 8.00"}
{"COMPOUND": "Cc1ncc(-c2[nH]c3ncc(-c4c(C)ccc(O)c4C)nc3c2F)cn1", "SYSTEM_UNDER_TEST": "PKMYT1 (Homo sapiens (Human), UniProt Q99640)", "EXPERIMENTAL_READOUT": "pIC50", "RECORDED_RESULT": "7.30 to 8.00"}

Prompt: Name the value of pIC50 reported for Cc1ccc(O)c(C)c1-c1cnc2[nH]c(-c3cnc(NC4CC4)s3)nc2c1 when tested on PKMYT1 (Homo sapiens (Human), UniProt Q99640).
Response: 6.30 to 7.30

Prompt: Name the value of pIC50 reported for Cc1ncc(-c2cc3c(C#N)c(-c4c(C)ccc(O)c4C)cnc3[nH]2)c(N)n1 when tested on PKMYT1 (Homo sapiens (Human), UniProt Q99640).
Response: > 8.00

Prompt: Name the value of pIC50 reported for Cc1ccc(O)c(C)c1-c1cnc2[nH]c(-n3ccnc3)cc2c1C#N when tested on PKMYT1 (Homo sapiens (Human), UniProt Q99640).
Response: > 8.00

Prompt: Name the value of pIC50 reported for Cc1ncc(-c2cc3c(C#N)c(-c4c(C)ccc(O)c4C)cnc3[nH]2)c(C)n1 (atropisomer, axis not shown) when tested on PKMYT1 (Homo sapiens (Human), UniProt Q99640).
Response: 7.30 to 8.00

Prompt: Name the value of pIC50 reported for Cc1ccc(O)c(C)c1-c1cnc2[nH]c(-c3cnc(N)nc3)c(C)c2c1C#N when tested on PKMYT1 (Homo sapiens (Human), UniProt Q99640).
Response: > 8.00

Prompt: Name the value of pIC50 reported for Cc1ccc(O)c(C)c1-c1cnc2[nH]c(-c3ccc(N4CCN(C)CC4)nc3C)nc2c1C when tested on PKMYT1 (Homo sapiens (Human), UniProt Q99640).
Response: 5.30 to 6.30

Prompt: Name the value of pIC50 reported for CCc1c(O)ccc(C)c1-c1cnc2[nH]c(-c3cnc(C)nc3)cc2c1C#N [Example 91] when tested on PKMYT1 (Homo sapiens (Human), UniProt Q99640).
Response: 7.30 to 8.00
